Tested on: TK-10 renal
Assay: NCI-60 one-dose screen, 48 h (100 = growth as untreated, 0 = no growth, -100 = all killed)
Settings: 10 µM unless noted
The panel holds about 83,000 compounds, 20% with a hit somewhere; the sample as a whole holds those more often.
Label Satisfied when growth >= 80%; otherwise Not satisfied.

| compound | measurement-target | category |
| --- | --- | --- |
| Cc1nc2sc(C(=O)Nc3cccc4ccccc34)c(N)c2cc1C(C)O (stereo not drawn) | TK-10 renal | Not satisfied |
| C[C@@H]1C(=O)[C@@H]2C[C@@H](O)[C@@H](O)C[C@]2(C)[C@H]2CC[C@@]3(C)C(=C12)CC[C@@H]3[C@@](C)(O)[C@H](O)CCC(C)(C)O | TK-10 renal | Satisfied |
| C#Cc1ccccc1NC(=O)c1sc2nc3c(cc2c1N)CCCCCC3 | TK-10 renal | Not satisfied |
| CC(=O)OC[C@]12CC[C@@H](c3cn(Cc4ccc(Cn5cc([C@@H]6CC[C@]7(COC(C)=O)CC[C@]8(C)[C@H](CC[C@@H]9[C@@]%10(C)CC[C@H](OC(C)=O)C(C)(C)[C@@H]%10CC[C@]98C)[C@@H]67)nn5)cc4)nn3)[C@@H]1[C@H]1CC[C@@H]3[C@@]4(C)CC[C@H](OC(C)=O)C(C)(C)[C@@H]4CC[C@@]3(C)[C@]1(C)CC2 | TK-10 renal | Satisfied |
| Nc1c(C(=O)Nc2ccccn2)sc2nc3c(cc12)CCCCCC3 | TK-10 renal | Not satisfied |
| O=C(O)c1cn(C2CC2)c2cc(N3CCN(Cc4nnc(Nc5ccccc5)o4)CC3)c(F)cc2c1=O | TK-10 renal | Satisfied |
| CC1=C/C(=N\N=C2/C=C(C)CC(C)(C)C2)CC(C)(C)C1 | TK-10 renal | Satisfied |

====

System: NCI-H23 lung
Assay: NCI-60 one-dose screen, 48 h
Conditions: 10 µM unless noted
This is part of a sample that, as a whole, favours compounds with a hit. Of some 83,000 tested, about 20% had one in any assay. Activity calls are given as the source filed them. The calls were made as follows: active = growth percent below 10; inactive = the rest.
Possible outcomes: class 1 (active), class 0 (inactive)

| molecule | category |
| --- | --- |
| Cc1nccc2c3ccc(OCc4cn(-c5ccc(Cl)cc5)nn4)cc3n(CC(C)C)c12 | class 0 |
| COc1cc(C(=O)Nc2cc(O)c(C/C=C(\C)CCC=C(C)C)c(O)c2)cc2c1O[C@]1(C)CC[C@@H](O)C(C)(C)[C@H]1C2 | class 0 |
| Nc1ccc2c(c1)C(=O)C(=O)c1c-2nc2ccccn12 | class 1 |
| CCOc1ccccc1C(=O)/C=C/c1cc2ccccc2[nH]c1=O | class 1 |
| O=S(=O)(Nc1nccs1)c1ccc(Nc2nc(-c3ccncc3)cs2)cc1 | class 0 |
| COc1ccc(/C=C/C(=O)C(CC2CCC2)C(=O)/C=C/c2ccc(OC)c(OC)c2)cc1OC | class 1 |
| Cc1ccc(SC2c3ccc(C)cc3Oc3nc(N)c(C#N)c(N)c32)cc1 (centres undefined) | class 0 |
| Oc1c(CCl)cc(Cl)cc1Cc1cc(Cl)cc(Cc2cc(Cl)cc(CCl)c2O)c1O | class 1 |
| COc1ccc(Nc2cc(NC(=O)CNc3cc(OC)c(Cl)c(OC)c3Cl)ncn2)cc1 | class 0 |
| Cn1nc(C(F)(F)F)c(-c2cc(C(F)(F)F)cc(C(F)(F)F)c2)c1-c1ccc(OCc2ccc(Cl)cc2)cc1O | class 1 |
| N#Cc1c(NC(=O)c2cccs2)[n+]([O-])c2cc(C(F)(F)F)ccc2[n+]1[O-] | class 0 |
| CC(=O)ON1CCCC(P(=O)(OCOC(=O)C(C)(C)C)OCOC(=O)C(C)(C)C)C1=O (centres undefined) | class 1 |
| Nc1n[nH]c2cccc(C#Cc3cccc(NC(=O)c4cc(N5CCOCC5)cc(C(F)(F)F)c4)c3)c12 | class 0 |
| c1ccc(-c2n(Cc3ccc4ccccc4n3)cc[n+]2Cc2ccc3ccccc3c2)cc1 | class 1 |
| NS(=O)(=O)c1ccc(N2Cc3cc(Cl)ccc3OC3=C2C(=O)N(CC2CCCCC2)C3=O)cc1 | class 1 |
| COc1ccc(-c2cs/c(=N\N=C\c3ccc(O)cc3O)n2/N=C/c2ccc(O)cc2O)cc1 | class 1 |
| S=C(Nc1ccc(Cl)cc1)c1ccccn1 | class 0 |
| N#Cc1c(-c2ccc(F)cc2)c(C#N)c2c(C#N)c(N)nn2c1N | class 0 |
| CC(C)NS(=O)(=O)c1cccc(-c2ccc3c(=O)n(CCCN)c4c(c3c2)C(=O)c2ccccc2-4)c1 | class 0 |
